Protocol: Assay of plasma and perilymph for lamotrigine (pharmacokinetic evaluation)
Type: in vivo
Condition set: male, albino; guinea pig, single oral dose 20 mg/kg, perilymph; read-out: perilymph mean maximum concentration (Cmax)
Quantity name: Cmax

Chemical smiles	Experimental result
Nc1nnc(-c2cccc(Cl)c2Cl)c(N)n1	6140 ng/mL

###

Protocol: Assay of plasma and perilymph for lamotrigine (pharmacokinetic evaluation)
Type: in vivo
Condition set: male, albino; guinea pig, single oral dose 20 mg/kg, perilymph, 15 hours; read-out: mean perilymph LTG level after the 15 hour sampling period

Chemical smiles	concentration at 15 h
Nc1nnc(-c2cccc(Cl)c2Cl)c(N)n1	3200 ng/mL

###

Protocol: Assay of plasma and perilymph for lamotrigine (pharmacokinetic evaluation)
Format: in vivo
Condition set: male, albino; guinea pig, single oral dose 20 mg/kg, plasma; read-out: plasma Tmax
Method: All solutions were prepared fresh on the day of dosing and stored at 2-8° C., protected from light, between dosing sessions. […] Levels of LTG in both plasma and perilymph were determined using a protein precipitation extraction procedure using high performance liquid chromatography (HPLC) with ultraviolet (UV) detection. The LTG retention time was 5.4 minutes and quantification was carried out using peak areas.

Compound	Tmax / h
Nc1nnc(-c2cccc(Cl)c2Cl)c(N)n1 [LTG]	1
